Experiment: Terminal half life in Sprague-Dawley rat at 1 mg/kg, iv
Assay type: ADME, organism-based
Conditions: in vivo, read-out: beta t1/2 (converted)
quantity.measured: half-life (min)
Answers are plain numbers, in min.

Reported half-life of `C[C@@H]1CCN(C(=O)Nc2nc3c(s2)-c2cc(C(C)(C)C(F)(F)F)ncc2OC3)[C@@H]1C(N)=O` : 84

* * *

Biological target: Phosphatidylinositol 4,5-bisphosphate 3-kinase catalytic subunit beta isoform (Homo sapiens)
Assay: Inhibition of myristoylated human P110beta expressed in Rat1 cells assessed as inhibition of Akt phosphorylation at Serine 473 by Western blot analysis
Format: cell-based
For each record, write down the corresponding pIC50.
Give bare numbers, as −log10 of the molar value.

INSERT INTO assay_data (smiles_text, assay_value) VALUES
  ('C[C@@H]1CCN(C(=O)Nc2nc3c(s2)-c2cc(C(C)(C)C(F)(F)F)ncc2OC3)[C@@H]1C(N)=O', 5.95);

From here, focus on the item given below.
Reported pIC50 of `Cc1nc(NC(=O)N2CC[C@@H](C)[C@H]2C(N)=O)sc1-c1ccnc(C(C)(C)C(F)(F)F)c1` : 5.70

* * *

Target: Phosphatidylinositol 4,5-bisphosphate 3-kinase catalytic subunit beta isoform (Homo sapiens, UniProt P42338)
Sequence (P42338 whole entry, canonical isoform): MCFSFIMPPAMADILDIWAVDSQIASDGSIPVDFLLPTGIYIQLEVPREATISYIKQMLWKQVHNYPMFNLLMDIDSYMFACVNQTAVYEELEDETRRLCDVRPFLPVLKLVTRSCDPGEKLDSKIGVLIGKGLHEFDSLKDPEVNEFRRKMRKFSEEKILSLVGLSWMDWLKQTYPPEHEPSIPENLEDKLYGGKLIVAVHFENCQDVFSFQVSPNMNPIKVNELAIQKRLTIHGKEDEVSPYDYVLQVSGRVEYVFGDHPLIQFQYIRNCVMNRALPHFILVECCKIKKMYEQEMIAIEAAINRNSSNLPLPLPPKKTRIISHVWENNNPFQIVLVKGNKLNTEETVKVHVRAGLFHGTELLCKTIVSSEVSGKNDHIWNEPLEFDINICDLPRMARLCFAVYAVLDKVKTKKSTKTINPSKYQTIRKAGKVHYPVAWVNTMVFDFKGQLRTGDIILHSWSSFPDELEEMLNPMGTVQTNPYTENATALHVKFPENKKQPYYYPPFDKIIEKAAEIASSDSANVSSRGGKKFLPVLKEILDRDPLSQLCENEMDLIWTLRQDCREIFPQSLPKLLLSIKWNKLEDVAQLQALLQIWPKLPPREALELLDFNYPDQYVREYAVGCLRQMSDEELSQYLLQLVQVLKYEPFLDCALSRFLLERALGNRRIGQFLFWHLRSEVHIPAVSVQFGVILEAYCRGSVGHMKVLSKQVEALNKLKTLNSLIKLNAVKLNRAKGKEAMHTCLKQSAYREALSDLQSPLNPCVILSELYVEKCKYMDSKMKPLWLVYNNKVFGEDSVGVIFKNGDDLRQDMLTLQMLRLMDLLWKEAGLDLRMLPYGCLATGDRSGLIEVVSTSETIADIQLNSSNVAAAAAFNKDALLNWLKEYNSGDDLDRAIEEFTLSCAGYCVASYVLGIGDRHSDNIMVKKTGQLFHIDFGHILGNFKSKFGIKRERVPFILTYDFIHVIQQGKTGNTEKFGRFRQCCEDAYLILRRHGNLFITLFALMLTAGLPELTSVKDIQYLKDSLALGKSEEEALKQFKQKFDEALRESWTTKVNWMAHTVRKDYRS
Test: Inhibition of P110beta (unknown origin) by Kinase-Glo assay
For each record, write down the corresponding pIC50.
Answers are plain numbers, as −log10 of the molar value.

INSERT INTO assay_data (smiles_text, assay_value) VALUES
  ('Cc1nc(NC(=O)N2CC[C@@H](C)[C@H]2C(N)=O)sc1-c1ccnc(C(C)(C)C(F)(F)F)c1', 5.98);

From here, focus on the item given below.
Reported pIC50 of `C[C@@H]1CCN(C(=O)Nc2nc3c(s2)-c2cc(C(C)(C)C(F)(F)F)ncc2OC3)[C@@H]1C(N)=O` : 6.17

* * *

Test: Oral bioavailability in Sprague-Dawley rat at 3 mg/kg
Format: ADME, organism-based
Conditions: in vivo
quantity.measured: bioavailability (%)
Numbers only, in %.

Reported bioavailability of `C[C@@H]1CCN(C(=O)Nc2nc3c(s2)-c2cc(C(C)(C)C(F)(F)F)ncc2OC3)[C@@H]1C(N)=O` : 17

* * *

Assay: Solubility of the compound in […]
Format: physicochemical
quantity.measured: solubility
Put down the number, then write its unit next to it.

INSERT INTO assay_data (smiles_text, assay_value) VALUES
  ('Cc1nc(NC(=O)N2CC[C@@H](C)[C@H]2C(N)=O)sc1-c1ccnc(C(C)(C)C(F)(F)F)c1', '31 µM');

From here, focus on the item given below.
Reported solubility of `C[C@@H]1CCN(C(=O)Nc2nc3c(s2)-c2cc(C(C)(C)C(F)(F)F)ncc2OC3)[C@@H]1C(N)=O` : 410 µM

* * *

Experiment: Tmax in Sprague-Dawley rat at 3 mg/kg, po
Format: ADME, organism-based
Details: in vivo
quantity.measured: Tmax (h)
One number for each entry, in h.

Reported Tmax of `C[C@@H]1CCN(C(=O)Nc2nc3c(s2)-c2cc(C(C)(C)C(F)(F)F)ncc2OC3)[C@@H]1C(N)=O` : 1.2

* * *

Test: Solubility of the compound in water at pH 6.8
Format: physicochemical
For each record, write down the corresponding solubility.
Numbers only, in µM.

INSERT INTO results (smiles_text, assay_value) VALUES
  ('C[C@@H]1CCN(C(=O)Nc2nc3c(s2)-c2cc(C(C)(C)C(F)(F)F)ncc2OC3)[C@@H]1C(N)=O', 260);

From here, focus on the item given below.
Reported solubility of `Cc1nc(NC(=O)N2CC[C@@H](C)[C@H]2C(N)=O)sc1-c1ccnc(C(C)(C)C(F)(F)F)c1` : 23

Cited source: ChEMBL document CHEMBL3603757
